Origin of the recorded values: the supplement of paper PMC10065799

Catalogue of sequences with associated phosphorylation enrichment
# TESTED SYSTEM: MERTK (UniProt Q12866)
# Sequence (Q12866 whole entry, looked up): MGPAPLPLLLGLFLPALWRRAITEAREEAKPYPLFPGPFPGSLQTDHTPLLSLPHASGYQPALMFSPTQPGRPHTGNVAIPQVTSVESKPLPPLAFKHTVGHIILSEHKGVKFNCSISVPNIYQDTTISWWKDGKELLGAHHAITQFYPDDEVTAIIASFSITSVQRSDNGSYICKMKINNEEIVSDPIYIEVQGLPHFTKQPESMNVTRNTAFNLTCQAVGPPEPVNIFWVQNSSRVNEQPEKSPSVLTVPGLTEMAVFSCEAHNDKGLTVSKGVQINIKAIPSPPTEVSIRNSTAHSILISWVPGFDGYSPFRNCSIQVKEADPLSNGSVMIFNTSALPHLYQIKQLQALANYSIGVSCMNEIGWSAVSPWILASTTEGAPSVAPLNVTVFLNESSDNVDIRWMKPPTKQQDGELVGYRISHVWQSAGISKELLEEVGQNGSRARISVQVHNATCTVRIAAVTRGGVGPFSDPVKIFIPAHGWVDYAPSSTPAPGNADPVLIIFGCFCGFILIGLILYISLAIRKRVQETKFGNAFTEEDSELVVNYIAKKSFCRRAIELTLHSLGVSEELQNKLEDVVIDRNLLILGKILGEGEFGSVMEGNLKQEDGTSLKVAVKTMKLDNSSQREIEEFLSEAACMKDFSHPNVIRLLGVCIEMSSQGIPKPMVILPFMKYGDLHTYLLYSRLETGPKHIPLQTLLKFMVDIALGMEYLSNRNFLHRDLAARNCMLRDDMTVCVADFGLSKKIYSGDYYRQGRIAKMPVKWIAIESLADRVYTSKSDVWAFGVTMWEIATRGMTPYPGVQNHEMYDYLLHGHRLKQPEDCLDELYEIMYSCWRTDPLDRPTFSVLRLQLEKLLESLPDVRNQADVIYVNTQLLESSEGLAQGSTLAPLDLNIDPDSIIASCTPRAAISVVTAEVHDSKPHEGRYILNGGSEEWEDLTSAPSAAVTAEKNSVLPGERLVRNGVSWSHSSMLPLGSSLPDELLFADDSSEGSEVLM
# PROTOCOL DESCRIPTION: phosphorylation enrichment, bacterial display (enrichment ratio); higher = better substrate or ligand; peptides without Tyr show the background;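 note: 11-residue human phosphosite peptides and single-mutation variants displayed on the E. coli surface, counted by deep sequencing, each peptide's frequency after selection divided by its frequency in the unselected input library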;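 note: frequency after pTyr selection over input frequency; kinase dosed for 20-30% of maximal phosphorylation in three min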
Answer field: number only, no words.

EKQLLYSENKT [FRK_Y132]; 0.766
CTNIHYNFMCN [TP53_Y234_T231N_YF]; 0.423
TTPGPHRSIYF [MPG_Y71_Y71H]; 0.479

Please state recorded phosphorylation enrichment (tested on MERTK (UniProt Q12866)) of GEVLVYAEDPA [FLNA_Y319_V320A]
0.408
